# Study system: HCMV polymerase (Human cytomegalovirus, UniProt P08546)
# Construct: made in house; host or cells: SF-9 insect cells infected with recombinant baculovirus
# Sequence (P08546 whole entry): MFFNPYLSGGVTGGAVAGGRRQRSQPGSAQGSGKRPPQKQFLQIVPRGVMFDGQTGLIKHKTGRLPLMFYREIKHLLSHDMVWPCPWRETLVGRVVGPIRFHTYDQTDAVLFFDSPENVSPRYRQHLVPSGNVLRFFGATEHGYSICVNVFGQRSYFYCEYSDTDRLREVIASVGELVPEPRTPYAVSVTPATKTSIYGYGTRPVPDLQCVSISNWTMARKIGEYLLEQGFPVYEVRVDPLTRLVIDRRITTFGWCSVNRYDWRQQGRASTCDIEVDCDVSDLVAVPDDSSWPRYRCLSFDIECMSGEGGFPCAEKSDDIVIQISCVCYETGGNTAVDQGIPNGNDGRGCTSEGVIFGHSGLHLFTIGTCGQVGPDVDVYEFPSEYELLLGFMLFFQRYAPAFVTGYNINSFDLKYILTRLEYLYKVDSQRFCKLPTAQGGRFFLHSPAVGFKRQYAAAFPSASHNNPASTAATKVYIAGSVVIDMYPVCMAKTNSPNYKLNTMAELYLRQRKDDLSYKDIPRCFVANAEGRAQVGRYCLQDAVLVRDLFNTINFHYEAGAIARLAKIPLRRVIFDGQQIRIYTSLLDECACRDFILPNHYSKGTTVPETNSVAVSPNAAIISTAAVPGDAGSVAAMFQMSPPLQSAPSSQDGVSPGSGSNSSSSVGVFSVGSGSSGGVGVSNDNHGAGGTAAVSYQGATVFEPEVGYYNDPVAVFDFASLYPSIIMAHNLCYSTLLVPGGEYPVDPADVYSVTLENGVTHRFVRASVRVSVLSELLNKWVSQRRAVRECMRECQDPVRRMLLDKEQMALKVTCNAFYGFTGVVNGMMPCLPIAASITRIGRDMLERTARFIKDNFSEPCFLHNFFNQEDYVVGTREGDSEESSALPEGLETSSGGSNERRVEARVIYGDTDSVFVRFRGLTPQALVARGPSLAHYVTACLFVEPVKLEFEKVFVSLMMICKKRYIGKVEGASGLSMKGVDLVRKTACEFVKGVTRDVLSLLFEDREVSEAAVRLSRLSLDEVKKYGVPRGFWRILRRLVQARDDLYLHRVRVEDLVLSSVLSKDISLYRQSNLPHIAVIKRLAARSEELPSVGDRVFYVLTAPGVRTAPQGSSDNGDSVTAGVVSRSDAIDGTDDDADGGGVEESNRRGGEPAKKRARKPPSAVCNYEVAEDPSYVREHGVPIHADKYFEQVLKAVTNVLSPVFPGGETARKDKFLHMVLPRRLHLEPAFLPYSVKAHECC
# Test name: HCMV polymerase assay (scintillation proximity assay)
# Type: biochemical
# Measurement context: percentage of inhibition at 25 μM concentration in CMV polymerase assay
Measured property: inhibition at 25 µM (%)

Molecule: O=C(/C=C/c1ccccc1Cl)Nc1nnc(NCCc2cccs2)s1
Study system: HCMV polymerase (Human cytomegalovirus, UniProt P08546)
Unit of measurement: %
inhibition at 25 µM: 47.6

(I) CCOc1ccc2ccccc2c1C(=O)Nc1nnc(NC2CC2)s1
(II) CCCCCCCC/C=C/CCCCCCCC(=O)Nc1nnc(NCC(c2ccccc2)c2ccccc2)s1
Smaller inhibition at 25 µM value? Options are I and II Lab note: record the label of whichever item you select.
I
(I: 42.8%, II: 87.3%)

---

# Study system: HCMV polymerase (Human cytomegalovirus, UniProt P08546)
# Construct: made in house; host or cells: SF-9 insect cells infected with recombinant baculovirus
# Test name: HCMV polymerase assay (scintillation proximity assay)
# Type: biochemical
# Measurement context: percentage of inhibition at 25 μM concentration in CMV polymerase assay
Measured property: inhibition at 25 µM (%)

Below, 3 compounds whose answers are already recorded.
Compound smiles: O=C(Nc1nnc(NCc2ccc3c(c2)OCO3)s1)c1ccc(F)cc1F
Study system: HCMV polymerase (Human cytomegalovirus, UniProt P08546)
Unit of measurement: %
Value observed: 34.5
//
Compound smiles: COc1ccc(CNc2nnc(NC(=O)c3cccc([N+](=O)[O-])c3)s2)cc1OC
Study system: HCMV polymerase (Human cytomegalovirus, UniProt P08546)
Unit of measurement: %
Value observed: 22.8
//
Compound smiles: O=C(Nc1nnc(NCCCNC2CCCCC2)s1)c1ccc([N+](=O)[O-])o1
Study system: HCMV polymerase (Human cytomegalovirus, UniProt P08546)
Unit of measurement: %
Value observed: 58.9

(A) O=C(Nc1nnc(NC2CCCCCC2)s1)c1ccc([N+](=O)[O-])o1
(B) O=C(Nc1nnc(NCCNc2ccccc2)s1)c1ccc(Br)cc1
When their inhibition at 25 µM values are compared, which is larger, A or B ? Lab note: record the label of whichever item you select.
A
(A: 64.7%, B: 22.8%)

---

# Study system: HCMV polymerase (Human cytomegalovirus, UniProt P08546)
# Construct: made in house; host or cells: SF-9 insect cells infected with recombinant baculovirus
# Test name: HCMV polymerase assay (scintillation proximity assay)
# Type: biochemical
# Measurement context: percentage of inhibition at 25 μM concentration in CMV polymerase assay
Measured property: inhibition at 25 µM (%)

Molecule: O=C(/C=C/c1ccccc1Cl)Nc1nnc(NC2CCC2)s1 [compound 276]
Measured property: inhibition at 25 µM
Value observed: 37.9

Molecule: O=C(Nc1nnc(NCc2ccc3c(c2)OCO3)s1)c1cc2ccccc2s1 [compound 180]
Measured property: inhibition at 25 µM
Value observed: 48.4

Molecule: CN1CCN(CCCNc2nnc(NC(=O)/C=C/c3ccccc3Cl)s2)CC1 [compound 422]
Measured property: inhibition at 25 µM
Value observed: 24

Molecule: CCOc1ccc2ccccc2c1C(=O)Nc1nnc(NCC2CCCO2)s1 (stereo not shown) [compound 450]
Measured property: inhibition at 25 µM
Value observed: 21.4

(I) CCOc1ccc2ccccc2c1C(=O)Nc1nnc(NCc2ccc(Cl)c(Cl)c2)s1 [compound 207]
(II) COc1ccccc1C(=O)Nc1nnc(NC2CCCc3ccccc32)s1 (stereo not shown) [compound 428]
(III) O=C(/C=C/c1ccccc1Cl)Nc1nnc(NCc2ccc(F)cc2)s1 [compound 67]
# ascending order, key=inhibition at 25 µM Please write the labels in the order that was asked for.
II, I, III

(I) CCCCCCCC/C=C/CCCCCCCC(=O)Nc1nnc(NCC(CC)CCCC)s1 (stereo not shown) [compound 286]
(II) O=C(Nc1nnc(NCCc2c[nH]cn2)s1)c1c(Cl)cccc1Cl [compound 448]
(III) O=C(Nc1nnc(NCc2ccc3c(c2)OCO3)s1)c1c(Cl)cccc1Cl [compound 96]
# ascending order, key=inhibition at 25 µM Please write the labels in the order that was asked for.
II, I, III
(II: 21.6%, I: 36.3%, III: 65.9%)

(I) O=C(/C=C/c1ccccc1)Nc1nnc(NCCN2CCOCC2)s1 [compound 220]
(II) CC(C)c1cc(C(C)C)c(C(=O)Nc2nnc(NCc3ccc4c(c3)OCO4)s2)c(C(C)C)c1 [compound 358]
Smaller inhibition at 25 µM value? Options are I and II Lab note: record the label of whichever item you select.
II

(a) O=C(/C=C/c1ccccc1)Nc1nnc(NC2CC2)s1 [compound 465]
(b) O=C(Nc1nnc(NCCC(c2ccccc2)c2ccccc2)s1)c1cccc([N+](=O)[O-])c1 [compound 226]
When their inhibition at 25 µM values are compared, which is larger, a or b ? Lab note: record the label of whichever item you select.
b
